- Tested on: human multiple myeloma cells (MM.1S)
- procedureText: Anti-proliferation assay (ATPLite, 72 h)
- Format: cell-based
- measurementConditions: Homo sapiens, MM1.S, 72 h, MM.1S, 72 h, +IL-6 (10 ng/ml)
recordedEndpoint: pIC50
Conceptually, pIC50 converts a concentration in mol/L into minus its log10.

Short answer for C[C@@H]1C[C@H]2[C@@H]3CCC4=CC(=O)C=C[C@]4(C)[C@@]3(F)[C@@H](O)C[C@]2(C)[C@@]1(O)C(=O)CO [dexamethasone] : pIC50 was 7.21

###

- Tested on: human multiple myeloma cells (MM.1S)
- procedureText: Anti-proliferation assay (ATPLite, 72 h)
- Format: cell-based
- Set-up: key: S = lnfX·lnfY·ΣIdata(Idata−ILoewe), volume over Loewe additivity
- measurementConditions: in combination with adenosine receptor agonist ADAC, MM.1S
- Method: ANBL6 and INA-6 culture media was also supplemented with 10 ng/ml IL-6. […] MM.1S, MM.1R, OCI-ly10, Karpas 422, and SU-DHL6 cells were provided by the Dana Farber Cancer Institute. […] Measurements were taken at the top of the well using a luminescence aperture and a read time of 0.1 seconds per well. The percent inhibition (% I) for each well was calculated using the following formula: % I=[(avg. untreated wells-treated well)/(avg. untreated wells)]×100. […]
Counter-ions that a name gives are not always drawn.
recordedEndpoint: synergy score
Just the number, please, no unit after it.

Short answer for COc1ccc(Cc2nccc3cc(OC)c(OC)cc23)cc1OC [Papaverine hydrochloride] : synergy score was 3.554

Short answer for COc1cc2c(cc1OC)-c1cc(=Nc3c(C)cc(C)cc3C)n(C)c(=O)n1CC2 [Trequinsin hydrochloride] : synergy score was 6.619

Short answer for OCCN(CCO)c1nc(N2CCCCC2)c2nc(N(CCO)CCO)nc(N3CCCCC3)c2n1 : synergy score was 1.18

Short answer for CCCCOc1cc(CC2CNC(=O)N2)ccc1OC (stereo not shown) : synergy score was 1.71

###

- Test system: H929 multiple myeloma cell line
- procedureText: Anti-proliferation assay (ATPLite, 72 h)
- Type: cell-based, human
- Parameters: key: S = lnfX·lnfY·ΣIdata(Idata−ILoewe), volume over Loewe additivity
- measurementConditions: PDE inhibitor crossed with (S) ENBA; H929
Everything with synergy score lower than 1 is Condition not met; everything else, including exactly 1, is Condition met.

Reported synergy score reaches at least 1 for CC(C)C(=O)c1c(C(C)C)nn2ccccc12 ? Condition not met

Reported synergy score reaches at least 1 for CCCc1nn(C)c2c(=O)[nH]c(-c3cc(S(=O)(=O)N4CCN(C)CC4)ccc3OCC)nc12 ? Condition not met

Reported synergy score reaches at least 1 for Cc1ccc([N+](=O)[O-])cc1S(=O)(=O)N(C)C ? Condition not met

Reported synergy score reaches at least 1 for COc1cc(-c2ccc(=O)[nH]n2)ccc1OC(F)F ? Condition met

Reported synergy score reaches at least 1 for CN/C(=N\c1ccc(C2=NNC(=O)CC2C)cc1)NC#N (stereo not drawn) ? Condition not met

Reported synergy score reaches at least 1 for Nc1nc(N)nc(-c2cc(Cl)ccc2Cl)n1 ? Condition not met

Reported synergy score reaches at least 1 for CN(C(=O)CCCOc1ccc2[nH]c(=O)ccc2c1)C1CCCCC1 [Cilostamide] ? Condition met

Reported synergy score reaches at least 1 for OCCN(CCO)c1nc(N2CCCCC2)c2nc(N(CCO)CCO)nc(N3CCCCC3)c2n1 ? Condition not met

Reported synergy score reaches at least 1 for COc1ccc(Cc2nn3c([C@@H](CCCc4ccccc4)[C@@H](C)O)nc(C)c3c(=O)[nH]2)cc1OC ? Condition met
